# System: LNCaP
# test: Cytotoxicity against human LNcaP cells after 48 hrs by SRB assay
# Format: functional
experimental_readout: log10(GI50) (log10 of the value in nM)
Answers are given as log10 of GI50 in nM.

The compound `C/C=C1\NC(=O)[C@H](Cc2ccccc2)NC(=O)[C@@H](C(C)C)NC(=O)[C@@H]([C@H](C)CC)NC(=O)[C@H](NC(=O)[C@H](NC(=O)[C@H](CCCCN)NC(=O)[C@H]2CCCN2C(=O)[C@H](NC(=O)[C@@H](NC(=O)[C@@H](NC(=O)[C@H](NC(=O)CCCC(C)C)C(C)C)[C@@H](C)O)C(C)C)C(C)C)[C@H](C)CC)[C@H](C)OC(=O)[C@H](C(C)C)NC1=O` , when measured on LNCaP, yielded log10(GI50) of 3.12

The measured log10(GI50) that `C/C=C1\NC(=O)[C@H](Cc2ccccc2)NC(=O)[C@@H](C(C)C)NC(=O)[C@@H]([C@H](C)CC)NC(=O)[C@H](NC(=O)[C@H](NC(=O)[C@H](CCCN)NC(=O)[C@H]2CCCN2C(=O)[C@H](NC(=O)[C@H](CCC(N)=O)NC(=O)[C@@H](NC(=O)[C@H](NC(=O)CCCC(C)C)C(C)C)[C@@H](C)O)C(C)C)[C@H](C)CC)[C@H](C)OC(=O)[C@H](C(C)C)NC1=O` showed for LNCaP is 3.49

Kindly note: LNCaP, `C/C=C1\NC(=O)[C@H](Cc2ccccc2)NC(=O)[C@@H](C(C)C)NC(=O)[C@@H]([C@H](C)CC)NC(=O)[C@H](NC(=O)[C@H](NC(=O)[C@H](CCCN)NC(=O)[C@H]2CCCN2C(=O)[C@H](NC(=O)CCCCCCCCCCCCC)C(C)C)[C@H](C)CC)[C@H](C)OC(=O)[C@H](C(C)C)NC1=O` , log10(GI50) value reported: 3.86

// log10(GI50) (LNCaP) for `C/C=C1\NC(=O)[C@H](Cc2ccccc2)NC(=O)[C@@H](C(C)C)NC(=O)[C@@H]([C@H](C)CC)NC(=O)[C@H](NC(=O)[C@H](NC(=O)[C@H](CCCN)NC(=O)[C@H]2CCCN2C(=O)[C@H](NC(=O)[C@@H](NC(=O)[C@H](Cc2ccccc2)NC(=O)[C@H](NC(=O)CCCC(C)C)C(C)C)C(C)C)C(C)C)[C@H](C)CC)[C@H](C)OC(=O)[C@H](C(C)C)NC1=O` = 1.79

`C/C=C1\NC(=O)[C@H](Cc2ccccc2)NC(=O)[C@@H](C(C)C)NC(=O)[C@@H]([C@H](C)CC)NC(=O)[C@H](NC(=O)[C@H](NC(=O)[C@H](CCCN)NC(=O)[C@H]2CCCN2C(=O)[C@H](NC(=O)[C@@H](NC(=O)CNC(=O)[C@H](NC(=O)CCCC(C)C)C(C)C)C(C)C)C(C)C)[C@H](C)CC)[C@H](C)OC(=O)[C@H](C(C)C)NC1=O` tested on LNCaP gave log10(GI50): 2.37

Tested system LNCaP; log10(GI50) recorded for `C/C=C1\NC(=O)[C@H](Cc2ccccc2)NC(=O)[C@@H](C(C)C)NC(=O)[C@@H]([C@H](C)CC)NC(=O)[C@H](NC(=O)[C@H](NC(=O)[C@H](CCCN)NC(=O)[C@H]2CCCN2C(=O)[C@H](NC(=O)[C@@H](NC(=O)[C@H](CC(C)C)NC(=O)[C@H](NC(=O)CCCC(C)C)C(C)C)C(C)C)C(C)C)[C@H](C)CC)[C@H](C)OC(=O)[C@H](C(C)C)NC1=O` was 3.02
